The measurements presented in this section are drawn from patent US6608082B1.

Each item that follows carries a reported pIC50.
- target.of.assay: MCR-4 (Homo sapiens)
- Construct: expressed in transfected cells; host or cells: HEK 293
- Sequence (P32245 whole entry): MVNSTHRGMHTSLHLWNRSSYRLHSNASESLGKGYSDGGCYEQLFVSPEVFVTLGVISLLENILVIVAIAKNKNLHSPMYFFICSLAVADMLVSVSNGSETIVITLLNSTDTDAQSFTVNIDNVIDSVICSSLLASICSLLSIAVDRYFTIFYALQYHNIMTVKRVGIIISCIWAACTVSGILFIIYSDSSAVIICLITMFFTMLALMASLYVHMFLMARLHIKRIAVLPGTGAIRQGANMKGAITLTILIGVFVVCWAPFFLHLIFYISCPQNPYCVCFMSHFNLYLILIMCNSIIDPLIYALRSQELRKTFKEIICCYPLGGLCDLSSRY
- measurement.description: Melanocortin receptor binding assay, competition with 125I-HP 467, HEK 293 cells expressing hMCR-4
- particulars: inhibition of binding of 125I-HP 467, HEK 293 cells expressing MCR-4; read-out: MC-4 IC50
pIC50: −log10 of the molar value.
observed.property: pIC50

INSERT INTO results (compound, target_of_assay, observed) VALUES
  ('CCCCNc1ccc(C2C(CNC3CCCCC3)c3ccccc3CN2CCCC(CN)NCCc2ccc3ccccc3c2)cc1 (stereo not shown) [TRG 2411-213]', 'MCR-4 (Homo sapiens)', 5.71),
  ('CCNc1ccc(C2C(CNCCc3ccccc3)c3ccccc3CN2CCCC(CN)NCCCCCN(CC)CC)cc1 (stereo not shown) [TRG 2420-3]', 'MCR-4 (Homo sapiens)', 5.08),
  ('CCNc1ccc(C2C(CNC3CCCCC3)c3ccccc3CN2CCCC(CN)NCCc2ccc(Br)cc2)cc1 (stereo not shown) [TRG 2411-167]', 'MCR-4 (Homo sapiens)', 5.95),
  ('CCOc1ccc(C2C(CO)c3ccccc3CN2CCCC(CN)NCCC2CCCCC2)cc1 (stereo not shown) [TRG 2415-3]', 'MCR-4 (Homo sapiens)', 5.62),
  ('COc1ccc(CCNCC2c3ccccc3CN(CCCCC(CN)NCc3ccc(-c4ccccc4)cc3)C2c2cc(C(F)(F)F)cc(C(F)(F)F)c2)cc1 (stereo not shown) [TRG 2421-15]', 'MCR-4 (Homo sapiens)', 5.12),
  ('CCc1ccc(C2C(CN)c3ccccc3CN2CCCC(CN)NCCC2CCCCC2)cc1 (stereo not shown) [TRG 2415-13]', 'MCR-4 (Homo sapiens)', 6.06),
  ('CCNc1ccc(C2C(CNCCc3ccccc3)c3ccccc3CN2CCCC(CN)NCCCCCNCc2ccccc2)cc1 (stereo not shown) [TRG 2420-2]', 'MCR-4 (Homo sapiens)', 5.39),
  ('COc1cccc(CCNCC2c3ccccc3CN(CCCCC(CN)NCc3ccc(C)cc3)C2c2cc(C(F)(F)F)cc(C(F)(F)F)c2)c1 (stereo not shown) [TRG 2421-37]', 'MCR-4 (Homo sapiens)', 6.08),
  ('CCNc1ccc(C2C(CN)c3ccccc3CN2CCCC(CN)NCCCCN)cc1 (stereo not shown) [TRG 2419-11]', 'MCR-4 (Homo sapiens)', 4.74),
  ('CCCCNc1ccc(C2C(CNCCc3ccccc3)c3ccccc3CN2CCCC(CN)NCCCC)cc1 (stereo not shown) [TRG 2411-191]', 'MCR-4 (Homo sapiens)', 6.28),
  ('NCC(CCCN1Cc2ccccc2C(CN)C1c1ccc(O)cc1)NCCC1CCCCC1 (stereo not shown) [TRG 2415-9]', 'MCR-4 (Homo sapiens)', 5.71),
  ('CCNc1ccc(C2C(CNCCc3ccccc3)c3ccccc3CN2CCCC(CN)NCc2ccccc2CN(CC)CC)cc1 (stereo not shown) [TRG 2420-15]', 'MCR-4 (Homo sapiens)', 5.86),
  ('CCNc1ccc(C2C(CNCCc3ccccc3)c3ccccc3CN2CCCC(CN)NCCCCNc2ccccc2)cc1 (stereo not shown) [TRG 2419-1]', 'MCR-4 (Homo sapiens)', 5.52),
  ('CCNc1ccc(C2C(CN)c3ccccc3CN2CCCC(CN)NCCCCNc2ccccc2)cc1 (stereo not shown) [TRG 2419-9]', 'MCR-4 (Homo sapiens)', 5.00),
  ('CCCCCNc1ccc(C2C(CNCCc3ccccc3)c3ccccc3CN2CCCC(CN)NCCc2ccccc2)cc1 (stereo not shown) [TRG 2412-17]', 'MCR-4 (Homo sapiens)', 5.94),
  ('CCCCNc1ccc(C2C(CN)c3ccccc3CN2CCCC(CN)NCCCC)cc1 (stereo not shown) [TRG 2411-219]', 'MCR-4 (Homo sapiens)', 5.53);
